These measurements were taken from patent US20220281969A1.

Here, each record is paired with measured IC50 data.
# system under test: T1, recombinant human LRP6-Fc chimera (human, UniProt O75581 20-1370)
# T1 construct: extracellular domain; also called human LRP6 chimera; not shown: Fc part of the chimera
# T1 sequence (looked up): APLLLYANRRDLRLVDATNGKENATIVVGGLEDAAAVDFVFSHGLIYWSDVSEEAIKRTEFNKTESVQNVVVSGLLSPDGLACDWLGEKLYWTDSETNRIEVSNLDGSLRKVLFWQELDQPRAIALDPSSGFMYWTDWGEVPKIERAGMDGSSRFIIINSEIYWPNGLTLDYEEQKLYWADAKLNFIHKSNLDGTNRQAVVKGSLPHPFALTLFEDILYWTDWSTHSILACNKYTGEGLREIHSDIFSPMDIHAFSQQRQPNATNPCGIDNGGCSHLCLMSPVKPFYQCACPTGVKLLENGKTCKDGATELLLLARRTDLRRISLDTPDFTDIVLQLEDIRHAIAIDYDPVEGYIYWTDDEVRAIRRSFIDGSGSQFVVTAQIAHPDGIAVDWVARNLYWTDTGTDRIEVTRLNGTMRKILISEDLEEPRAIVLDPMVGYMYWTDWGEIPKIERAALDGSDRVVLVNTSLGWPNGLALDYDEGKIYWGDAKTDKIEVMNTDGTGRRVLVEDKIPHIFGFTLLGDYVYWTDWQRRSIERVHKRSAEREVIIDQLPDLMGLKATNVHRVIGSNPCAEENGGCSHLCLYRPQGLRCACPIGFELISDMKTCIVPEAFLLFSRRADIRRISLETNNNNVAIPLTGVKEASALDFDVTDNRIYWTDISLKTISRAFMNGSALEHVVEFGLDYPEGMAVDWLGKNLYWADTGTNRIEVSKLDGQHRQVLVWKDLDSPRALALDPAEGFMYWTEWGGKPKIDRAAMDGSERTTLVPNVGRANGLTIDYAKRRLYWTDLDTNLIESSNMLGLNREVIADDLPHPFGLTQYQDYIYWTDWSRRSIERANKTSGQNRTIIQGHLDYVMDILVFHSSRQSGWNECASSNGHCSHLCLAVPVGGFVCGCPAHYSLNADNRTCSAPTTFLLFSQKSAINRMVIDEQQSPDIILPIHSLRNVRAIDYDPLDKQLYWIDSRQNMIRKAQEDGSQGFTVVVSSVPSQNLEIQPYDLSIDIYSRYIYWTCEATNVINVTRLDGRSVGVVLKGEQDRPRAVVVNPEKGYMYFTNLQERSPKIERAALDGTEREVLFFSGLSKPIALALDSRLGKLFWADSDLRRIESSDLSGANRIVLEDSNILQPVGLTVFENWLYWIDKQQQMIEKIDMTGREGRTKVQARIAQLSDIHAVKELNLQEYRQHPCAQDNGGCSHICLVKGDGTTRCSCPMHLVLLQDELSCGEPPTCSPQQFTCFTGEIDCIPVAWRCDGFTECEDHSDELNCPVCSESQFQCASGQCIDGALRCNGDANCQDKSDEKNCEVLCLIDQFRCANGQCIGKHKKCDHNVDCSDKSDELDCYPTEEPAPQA
# experimental protocol: multipoint competitive ELISA; human LRP6-Fc chimera titrated against OD450 of the IgG1; non-linear regression
measurement name: IC50

[
  {
    "binder": "LRP6-A1 IgG1 antibody (antibody, V domains shown, Tested as purified full length IgG1; Synthetic antibody on a human framework, detected with anti-kappa antibody) VH: EVQLVESGGGLVQPGGSLRLSCAASGFNLSYYYIHWVRQAPGKGLEWVASIYSSYGYTSYADSVKGRFTISADTSKNTAYLQMNSLRAEDTAVYYCARTVRGSKKPYFSGWAMDYWGQGTLVTVSS VL: DIQMTQSPSSLSASVGDRVTITCRASQSVSSAVAWYQQKPGKAPKLLIYSASSLYSGVPSRFSGSRSGTDFTLTISSLQPEDFATYYCQQYYWPITFGQGTKVEIKR",
    "readout value": "9.58 nM"
  },
  {
    "binder": "LRP6-A10 IgG1 antibody (antibody, V domains shown, Tested as purified full length IgG1) VH: EVQLVESGGGLVQPGGSLRLSCAASGFNISYSSIHWVRQAPGKGLEWVAYISSYYGYTYYADSVKGRFTISADTSKNTAYLQMNSLRAEDTAVYYCARAHYFPWAGAMDYWGQGTLVTVSS VL: DIQMTQSPSSLSASVGDRVTITCRASQSVSSAVAWYQQKPGKAPKLLIYSASSLYSGVPSRFSGSRSGTDFTLTISSLQPEDFATYYCQQYSWGPFTFGQGTKVEIKR",
    "readout value": "6.29 nM"
  },
  {
    "binder": "LRP6-G3 IgG1 antibody (antibody, V domains shown, Tested as purified full length IgG1) VH: EVQLVESGGGLVQPGGSLRLSCAASGFNISSYYIHWVRQAPGKGLEWVASIYSSYGYTSYADSVKGRFTISADTSKNTAYLQMNSLRAEDTAVYYCARTVRGSKKPYFSGWAMDYWGQGTLVTVSS VL: DIQMTQSPSSLSASVGDRVTITCRASQSVSSAVAWYQQKPGKAPKLLIYSASSLYSGVPSRFSGSRSGTDFTLTISSLQPEDFATYYCQQYYWPITFGQGTKVEIKR",
    "readout value": "10.2 nM"
  }
]
